- tested_target: GABA-A receptor; alpha-1/beta-3/gamma-2 (Homo sapiens, UniProt P14867+P18507+P28472)
- Sequence (P14867 whole entry): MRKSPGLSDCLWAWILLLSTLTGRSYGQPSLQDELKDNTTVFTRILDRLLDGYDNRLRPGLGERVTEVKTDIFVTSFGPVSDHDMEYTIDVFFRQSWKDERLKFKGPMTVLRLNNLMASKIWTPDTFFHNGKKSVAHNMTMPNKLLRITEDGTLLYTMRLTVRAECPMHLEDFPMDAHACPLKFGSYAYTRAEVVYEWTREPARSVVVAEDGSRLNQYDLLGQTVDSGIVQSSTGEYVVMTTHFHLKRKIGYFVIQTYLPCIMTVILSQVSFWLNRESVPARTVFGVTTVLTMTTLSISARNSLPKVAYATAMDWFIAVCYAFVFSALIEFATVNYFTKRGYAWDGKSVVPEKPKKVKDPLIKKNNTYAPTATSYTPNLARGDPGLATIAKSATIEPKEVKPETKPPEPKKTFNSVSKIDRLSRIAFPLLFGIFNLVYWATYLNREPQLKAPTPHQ
- Sequence (P18507 whole entry): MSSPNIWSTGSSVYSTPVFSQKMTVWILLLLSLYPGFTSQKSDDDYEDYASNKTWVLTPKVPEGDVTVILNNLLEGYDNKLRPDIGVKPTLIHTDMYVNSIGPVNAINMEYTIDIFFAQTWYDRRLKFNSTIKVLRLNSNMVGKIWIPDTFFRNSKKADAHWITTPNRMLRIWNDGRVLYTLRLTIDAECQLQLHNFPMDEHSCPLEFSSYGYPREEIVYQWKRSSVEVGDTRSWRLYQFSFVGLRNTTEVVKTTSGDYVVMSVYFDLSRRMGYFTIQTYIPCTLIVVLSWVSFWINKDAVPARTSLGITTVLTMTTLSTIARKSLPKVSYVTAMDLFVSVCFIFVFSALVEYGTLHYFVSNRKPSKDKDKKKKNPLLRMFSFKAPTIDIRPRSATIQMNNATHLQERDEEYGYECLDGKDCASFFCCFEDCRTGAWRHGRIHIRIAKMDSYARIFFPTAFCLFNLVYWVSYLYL
- Sequence (P28472 whole entry): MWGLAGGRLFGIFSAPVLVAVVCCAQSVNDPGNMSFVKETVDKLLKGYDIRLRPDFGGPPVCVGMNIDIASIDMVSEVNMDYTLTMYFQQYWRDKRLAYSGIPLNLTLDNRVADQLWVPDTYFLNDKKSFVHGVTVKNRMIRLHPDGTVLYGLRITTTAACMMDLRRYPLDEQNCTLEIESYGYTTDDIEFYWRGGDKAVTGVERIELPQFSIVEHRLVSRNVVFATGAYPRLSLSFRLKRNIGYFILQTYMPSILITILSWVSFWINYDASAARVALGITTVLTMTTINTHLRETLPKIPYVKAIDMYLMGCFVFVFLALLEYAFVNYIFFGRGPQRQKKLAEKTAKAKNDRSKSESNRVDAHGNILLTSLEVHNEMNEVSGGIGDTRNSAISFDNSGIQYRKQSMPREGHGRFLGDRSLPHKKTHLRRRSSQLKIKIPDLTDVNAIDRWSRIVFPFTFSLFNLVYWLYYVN
- method_summary: Binding affinity for human recombinant gamma-aminobutyric-acid (GABA) A receptor alpha-1-beta-3-gamma-2
- Format: protein-complex assay
value_type: pKi
Value format note: pKi is -log10 of concentration (mol/L); just state the number.

For record O=C1CN=C(c2cccs2)c2cc(F)ccc2N1 the listed pKi is 6.76

# pKi of CC(C)(C)OC(=O)c1ncn2c1[C@@H]1CCCN1C(=O)c1c(Br)cccc1-2 [BRETAZENIL] = 9.46

Input Clc1ccc2c(c1)[nH]c1c2ncc2[nH]c3ccccc3c21 . Output pKi: 8.41

The recorded pKi for CCOC(=O)c1ncn2c1[C@@H]1CCCN1C(=O)c1ccccc1-2 is 8.14

Just so you know, measured pKi for COC(=O)c1cc2c3cc(NCc4ccc5ccccc5c4)ccc3nc-2c[nH]1 came out at 7.51

pKi reading for CCOC(=O)c1[nH]cc2nc3ccc(OC)cc3c-2c1CC : 8.80

Record summary for COC(=O)c1cc2c(cn1)[nH]c1ccc(NCc3ccccc3)cc12 : reported pKi = 8.27

Recorded pKi (compound O=c1c2cnc3ccccc3c2[nH]n1-c1ccc(Br)cc1 ): 9.74
